- Test system: EGFR Del19/T790M/C797S (BaF3-DTC cells)
- assay_comment: EGFR degradation HTRF assay, BaF3-DTC cells
- Assay type: cell-based
- test_parameters: 16h treatment, maximum percentage of degradation
What DTC Dmax (%) was measured for each of the following?
Give the number; % is assumed, so skip it.

DTC Dmax (%) measured on CCc1cc(Nc2ncc(Br)c(Nc3ccc4nc(C)ccc4c3P(C)(C)=O)n2)c(OC)cc1N1CCC(N2CCN(CCc3ccc4c(c3)C3(CC3)C(=O)N4C3CCC(=O)NC3=O)CC2)CC1 (centres unmarked) [Example 710] = 87.65

DTC Dmax (%) measured on CCc1cc(Nc2ncc(Br)c(Nc3ccc4nccnc4c3P(C)(C)=O)n2)c(OC)cc1N1CCC(N2C[C@@H](C)N(CC3CN(c4ccc5c(c4)C(=O)N(C4CCC(=O)NC4=O)C5=O)C3)[C@@H](C)C2)CC1 (some centres unmarked) [Example 159] = 87.25

DTC Dmax (%) measured on CCc1cc(Nc2ncc(Br)c(Nc3ccc4nccnc4c3P(C)(C)=O)n2)c(OC)cc1N1CCC(N2CCN(C(=O)C3CN(c4ccc5c(c4)C(=O)N(C4CCC(=O)NC4=O)C5=O)C3)CC2)CC1 (centres unmarked) [Example 64] = 90.07

DTC Dmax (%) measured on CCc1cc(Nc2ncc(Br)c(Nc3ccc4nccnc4c3P(C)(C)=O)n2)c(OC)cc1N1CCC(N2CCN(CCc3ccc(C4CCC(=O)NC4=O)cc3F)CC2)CC1 (centres unmarked) [Example 6] = 81.2

DTC Dmax (%) measured on CCc1cc(Nc2ncc(Br)c(Nc3ccc4c(=O)n(C)ccc4c3P(C)(C)=O)n2)c(OC)cc1N1CCC(N2CCN(CCc3cccc4c3n(C)c(=O)n4C3CCC(=O)NC3=O)CC2)CC1 (centres unmarked) [Example 705] = 88.58

DTC Dmax (%) measured on CCc1cc(Nc2ncc(Br)c(Nc3ccc4nccnc4c3P(C)(C)=O)n2)c(OC)cc1N1CCC(N2CCN(C(=O)CCN3CCN(c4ccc5c(c4)C(=O)N(C4CCC(=O)NC4=O)C5=O)CC3)CC2)CC1 (centres unmarked) [Example 61] = 96.02

DTC Dmax (%) measured on CCc1cc(Nc2ncc(Br)c(Nc3ccc4nccnc4c3P(C)(C)=O)n2)c(OC)cc1N1CCC(N2CCN(C[C@@H]3CCN(c4ccc(C5CCC(=O)NC5=O)cc4)C3)CC2)CC1 (some centres unmarked) [Example 221] = 87.37

DTC Dmax (%) measured on CCc1cc(Nc2ncc(Br)c(Nc3ccc4nccnc4c3P(C)(C)=O)n2)c(OC)cc1N1CCC(N2CCN(C(=O)[C@@H]3CCN(c4cc(F)c(C5CCC(=O)NC5=O)c(F)c4)C3)CC2)CC1 (some centres unmarked) [Example 255] = 96.33

DTC Dmax (%) measured on CCc1cc(Nc2ncc(Br)c(Nc3ccc4nccnc4c3P(C)(C)=O)n2)c(OC)cc1N1CCC(N2CCN(C[C@H]3CCN(c4ccc5c(c4)C(=O)N(C4CCC(=O)NC4=O)C5=O)C3)CC2)CC1 (some centres unmarked) [Example 232] = 86.38

DTC Dmax (%) measured on CCc1cc(Nc2ncc(Br)c(Nc3ccc4nc(CO)ccc4c3P(C)(C)=O)n2)c(OC)cc1N1CCC(N2CCN(CCc3cc(F)c(C4CCC(=O)NC4=O)c(F)c3)CC2)CC1 (centres unmarked) [Example 329] = 96.43

DTC Dmax (%) measured on CCc1cc(Nc2ncc(Br)c(Nc3ccc4nccnc4c3P(C)(C)=O)n2)c(OC)cc1N1CCC(N2CCN(C[C@H]3C[C@H](N(C)c4cccc(C5CCC(=O)NC5=O)c4)C3)CC2)CC1 (some centres unmarked) [Example 307] = 73.68

DTC Dmax (%) measured on CCc1cc(Nc2ncc(Br)c(Nc3ccc4nccnc4c3P(C)(C)=O)n2)c(OC)cc1N1CCC(N2CCN(C(=O)C3CN(c4ccc(C5CCC(=O)NC5=O)c(C#N)c4)C3)CC2)CC1 (centres unmarked) [Example 306] = 73.14

DTC Dmax (%) measured on CCc1cc(Nc2ncc(Br)c(Nc3ccc4nc(C(C)C)ccc4c3P(C)(C)=O)n2)c(OC)cc1N1CCC(N2CCN(CCc3cc(F)c(C4CCC(=O)NC4=O)c(F)c3)CC2)CC1 (centres unmarked) [Example 316] = 89.57

DTC Dmax (%) measured on CCc1cc(Nc2ncc(Br)c(Nc3ccc4nccnc4c3P(C)(C)=O)n2)c(OC)cc1N1CCC(N2CCN(C(=O)C3CCN(c4ccc5c(c4)C(=O)N(C4CCC(=O)NC4=O)C5=O)CC3)CC2)CC1 (centres unmarked) [Example 67] = 94.22

DTC Dmax (%) measured on CCc1cc(Nc2ncc(Br)c(Nc3ccc4nccnc4c3P(C)(C)=O)n2)c(OC)cc1N1CCC(N2CCN(CC3CCN(c4cccc(C5CCC(=O)NC5=O)c4)CC3)CC2)CC1 (centres unmarked) [Example 264] = 74.58

DTC Dmax (%) measured on COc1cc(N2CCC(N3CCN(CCC4CCN(c5cc(F)c(C6CCC(=O)NC6=O)c(F)c5)CC4)CC3)CC2)c(C)cc1Nc1ncc(Br)c(Nc2ccc3nc(C)ccc3c2P(C)(C)=O)n1 (centres unmarked) [Example 217] = 90.75

DTC Dmax (%) measured on CCc1cc(Nc2ncc(Br)c(Nc3ccc4nccnc4c3P(C)(C)=O)n2)c(OC)cc1N1CCC(N2CCN(C(=O)[C@@H]3CCN(c4ccc(C5CCC(=O)NC5=O)cc4)C3)CC2)CC1 (some centres unmarked) [Example 224] = 87.47

DTC Dmax (%) measured on CCc1cc(Nc2ncc(Br)c(Nc3ccc4nccnc4c3P(C)(C)=O)n2)c(OC)cc1N1CCC(N2CCN(CCCCCc3ccc(C4CCC(=O)NC4=O)cc3)CC2)CC1 (centres unmarked) [Example 7] = 95.15

DTC Dmax (%) measured on CCc1cc(Nc2ncc(Br)c(Nc3ccc4nccnc4c3P(C)(C)=O)n2)c(OC)cc1N1CCC(N2CCN(CC3CCN(c4cc(F)c(C5CCC(=O)NC5=O)c(F)c4)CC3)CC2)CC1 (centres unmarked) [Example 303] = 90.93

DTC Dmax (%) measured on CCc1cc(Nc2ncc(Br)c(Nc3ccc4nc(C)ccc4c3P(C)(C)=O)n2)c(OC)cc1N1CCC(N2CCN(C(=O)C3CCN(c4ccc5c(c4)C(C)(C)C(=O)N5C4CCC(=O)NC4=O)CC3)CC2)CC1 (centres unmarked) [Example 436] = 89.14
